- Test system: MALME-3M melanoma
- experiment: NCI-60 one-dose screen, 48 h
- study-conditions: 10 µM unless noted
The panel holds about 83,000 compounds, 20% with a hit somewhere; the sample as a whole holds those more often. Calls of active or inactive are those of the source. How the source made its calls: active means growth percent below 10; inactive means the rest.
A correct response names exactly one class from active, inactive

Qu. What was the test verdict on CCOC(=O)c1nn(C2CCCCO2)c2ccc(NS(=O)(=O)c3ccc(C)cc3)cc12 (stereo not drawn) ?
Ans. inactive

Qu. Could you please tell me the result logged for "CC1(C)S[C@@H]2[C@H](NC(=O)[C@H](C(=O)O)c3cccs3)C(=O)N2[C@H]1C(=O)O" in this assay?
Ans. inactive

Qu. Which outcome was entered for the compound "C=C(C)[C@@H]1CC[C@]2(C(=O)NCCCCCCN(CCCN)CCCN)CC[C@]3(C)[C@H](CC[C@@H]4[C@@]5(C)CC[C@H](OCCCN)C(C)(C)[C@@H]5CC[C@]43C)[C@@H]12" in this test?
Ans. inactive

Qu. What is the recorded call for this compound in the test? "Brc1ccc2c(c1)CN(C1CCCCC1)CO2"
Ans. inactive

Qu. // outcome(item) with item = "COc1ncnc2c(-c3ccccc3)cn(COCc3ccccc3)c12"
Ans. inactive

Qu. Query: recorded result category for "O=C(CCN1CCCCC1)c1ccc2ccccc2c1" in this test
Ans. inactive

Qu. Tell me the recorded outcome of this test for COc1ccc2c(c1)C(C)Cc1c(ncnc1-n1cnc3ccccc31)N2C (stereo not drawn) .
Ans. inactive

Qu. I would be grateful if you could indicate the recorded call for "Cc1cc(C)c(O)c(CNCCCNCc2cc(C)cc(C)c2O)c1" .
Ans. active

Qu. What did this assay record as the result for Cc1ccc(S(=O)(=O)N/N=C2\CC3CCC2(C)C3(C)C)cc1 (stereo not drawn) ?
Ans. inactive

Qu. Look up the recorded call for CC/C=C(\C)C(CCC)(CN=O)C(=O)OCC (stereo not drawn) in this test.
Ans. inactive

Qu. Can you look up the reported call for "C#CCNC(=O)CC[C@]1(C)[C@H]2CC[C@@H]3[C@@H]([C@@](C)(O)CCC=C(C)C)CC[C@@]3(C)[C@]2(C)CC[C@H]1C(=C)C" for me?
Ans. active

Qu. Give the logged outcome of this assay for the following compound: "O=C1/C(=C/c2cccc(OCc3ccccc3)c2)Oc2cc(OCCN3CCCCC3)ccc21"
Ans. inactive

Qu. Hello, I am checking results. What call was entered for "O=C(Nc1ccccc1)Nc1ccc(C(=O)/C=C/c2ccc(N3CCCC3)cc2)cc1" ?
Ans. inactive

Qu. Can you look up the reported call for "CC1(C)CC[C@]2(C(=O)O)CC[C@]3(C)[C@H](CC[C@@H]4[C@@]5(C)CCC(=O)C(C)(C)[C@@H]5CC[C@]43C)[C@H]2[C@H]1OC(=O)C(F)(F)F" for me?
Ans. active

Qu. Test call, this compound: CCCn1ccnc1C(O)c1ccc(OCc2ccccc2)c(OC)c1 (stereo not drawn)
Ans. inactive

Qu. Given "COC(=O)[C@]1(C)CC[C@]2(C)CC[C@]3(C)C(=CC(=O)[C@@H]4[C@@]5(C)CCC(=O)NC(C)(C)[C@@H]5CC[C@]43C)[C@@H]2C1" , state the outcome it received in this test.
Ans. active

Qu. Dear all, I need the recorded test outcome for "c1nc(N2CCOCC2)c2[nH]ccc2n1" , thank you.
Ans. inactive

Qu. Look up the recorded call for "C=C(C)[C@@H]1CC[C@]2(C)[C@H](CC[C@@H]3[C@@H]([C@@](C)(O)CCC=C(C)C)CC[C@]32C)[C@@]1(C)CCC(=O)O" in this test.
Ans. active

Qu. For "COc1ccc(C=C2c3ccccc3-c3ccccc32)cc1" , which call appears in the assay record?
Ans. inactive

Qu. Recorded call for "CCCCCCCCCCCCCCCCCCNC(=S)N/N=C/c1ccc(OC)c(OC)c1" ?
Ans. inactive

Qu. Identify the outcome logged in this assay for the compound shown: "C[N+](C)(C)c1ncnc2[n-]cnc12"
Ans. inactive

Qu. What call does the record list for "C=C1C(=O)O[C@H]2[C@H]1CC/C(COC(=O)NCc1ccc(Cn3c(=O)sn(-c4ccc(Cl)cc4)c3=O)cc1)=C\CC[C@@]1(C)O[C@@H]21" ?
Ans. inactive

Qu. Could you kindly confirm the outcome this assay logged for "COc1ncc(-c2ccc3nc(N)n(-c4ccccc4C(F)(F)F)c(=O)c3c2)cc1S(=O)(=O)Nc1ccc(F)cc1F" ?
Ans. inactive

Qu. # outcome recorded in this test, key = "CC1=CC[C@@H]2C(C)(C)[C@@H](O)CC[C@@]2(C)[C@@H]1COc1ccc2ccc(=O)oc2c1"
Ans. inactive

Qu. Identify the outcome logged in this assay for the compound shown: "CCNc1cc2c(cc1Br)-c1ccccc1C2=O"
Ans. inactive

Qu. What did this assay record as the result for "O=C(Nc1cccc(F)c1)c1cc(=O)[nH]c2cc(Br)ccc12" ?
Ans. inactive

Qu. Lab log entry: "CC(C)CCNCC(C)(C)O" — outcome as called in the assay?
Ans. inactive

Qu. Give the logged outcome of this assay for the following compound: "O=c1cc(-c2ccccc2)oc2cc(OCc3cn(Cc4ccc(F)cc4)nn3)cc(O)c12"
Ans. active

====

Give measured growth for each item. Keep answers brief.
- Tested on: SN12C renal
- experiment: NCI-60 one-dose screen, 48 h (100 = growth as untreated, 0 = no growth, -100 = all killed)
- study-conditions: 10 µM unless noted
Compounds without any hit were thinned out: in the full panel of roughly 83,000, 20% have a hit. Calls of active or inactive are those of the source. The calls were made as follows: active = growth percent below 10; inactive = the rest.

Looking up "C=C(C)[C@@H]1CC[C@]2(C(=O)OC)CC[C@]3(C)[C@H](CC[C@@H]4[C@@]5(C)CC/C(=N\OCCC(=NCCC#N)NOCCC#N)C(C)(C)[C@@H]5CC[C@]43C)[C@@H]12" , I see its growth listed as -71.9% [100 µM] (active)

response.value for "CC1(C)S[C@@H]2[C@H](NC(=O)[C@H](C(=O)O)c3cccs3)C(=O)N2[C@H]1C(=O)O" (field: growth) = 104% (inactive)

Reported growth of "Nc1nc(Nc2ccccc2)c2ncn(Cc3cc4c(cc3Br)OCO4)c2n1" : 7.96% (active)

Record "Cc1ccc(NC(=O)N[C@@H](Cc2cc(F)cc(F)c2)C(=O)N[C@@H]2C(=O)N3CCC[C@H]3C(=O)N3CCCC[C@H]3C(=O)N[C@@H](C)C(=O)N3C[C@H](C)C[C@H]3C(=O)O[C@H]2C)cc1" , field growth: 18.1% (inactive)

Noted for "Cc1ccc(-c2cn(C/C=C3\C=CN(S(=O)(=O)c4ccccc4)CC3)nn2)cc1" : its growth reads 91.9% (inactive)

Just so you know, measured growth for "C=C(C)[C@@H]1CC[C@]2(C(N)=O)CC[C@]3(C)[C@H](CC[C@@H]4[C@@]5(C)C/C(=C/c6cccnc6)[C@H](O)C(C)(C)[C@@H]5CC[C@]43C)[C@@H]12" came out at 20% [100 µM] (inactive)

Value of measured growth for the entry "CCCSc1nc(N)nc2nc[nH]c12" : 98.3% (inactive)

The reported value for CCc1ccc(-c2ccc(COc3ccc(CC4SC(=O)NC4=O)cc3)cc2)cc1 (configuration not stated) in terms of growth is 74.5% (inactive)

Summary for this compound, CCOC(=O)c1nn(C2CCCCO2)c2ccc(NC(=O)CSc3nc4ccccc4c(=O)[nH]3)cc12 (configuration not stated) : growth is 87% (inactive)

// recorded growth for "CC(C)=CCC[C@](C)(O)[C@H]1CC[C@]2(C)[C@@H]1CC[C@@H]1[C@@]3(C)CC[C@H](OC(=O)CCC(=O)O)C(C)(C)[C@@H]3CC[C@]12C" : 15% [100 µM] (inactive)

For "CC1(C)CC[C@]2(C(=O)O)CC[C@]3(C)C(=CC[C@@H]4[C@@]5(C)C/C(=C/c6cccnc6)[C@H](O)C(C)(C)[C@@H]5CC[C@]43C)[C@@H]2C1" the compound record lists growth as 6.59% [100 µM] (active)

Memo: "Cc1ccccc1OC(=O)c1cccc(Cl)c1" , reported growth: 110% (inactive)

Briefly, growth measured for CCN(CCNc1ccc(C)c2sc3cc(Cl)ccc3c(=O)c12)CC(C)O (configuration not stated) : 48.7% (inactive)

The compound listed as "C#C[C@]1(O)CC[C@H]2[C@@H]3CC=C4c5nc(Nc6ncccn6)sc5CC[C@]4(C)[C@H]3CC[C@@]21C" shows growth equal to 82.8% (inactive)

// growth value for "CC(=O)Nc1ccc2nc3ccc(NC(C)=O)cc3[n+](-c3ccccc3)c2c1" : 104% (inactive)

Per the records, this compound ( "O=C(Nc1cccc2ccccc12)c1cc2ccccc2cc1O" ) has growth equal to 7.28% (active)

growth measured on "NC(=O)c1cccc(-c2ccc(S(=O)(=O)Nc3ccc4c(c3)N(C(=O)C3CC3)CCC4)cc2)c1" = 52.1% (inactive)

// recorded growth for "C=C(C)[C@@H]1CC[C@]2(C(=O)N3CCN(C)CC3)CC[C@]3(C)[C@H](CC[C@@H]4[C@@]5(C)C/C(=C/c6ccncc6)[C@H](O)C(C)(C)[C@@H]5CC[C@]43C)[C@@H]12" : -44.2% [100 µM] (active)

Lookup result for "Brc1ccc2c(c1)CN(C1CCCCC1)CO2" ; measured growth: 113% (inactive)

Note to self: growth recorded for "O=C(CCN1CCCCC1)c1ccc(Cl)cc1" was 111% (inactive)

Memo: "Nc1cc(Cl)cc2cccnc12" , reported growth: 91.1% (inactive)

Kindly note the recorded growth for "CN(C)c1cc(NN=C(c2ccc(O)cc2)c2ccc(O)cc2)c([N+](=O)[O-])cc1[N+](=O)[O-]" , which is 93.8% (inactive)
